- TARGET: hCA I (Homo sapiens, UniProt P00915)
- Construct: gene CA1; native enzyme purified from human blood; cytosolic isoform
- Sequence (P00915 2-261): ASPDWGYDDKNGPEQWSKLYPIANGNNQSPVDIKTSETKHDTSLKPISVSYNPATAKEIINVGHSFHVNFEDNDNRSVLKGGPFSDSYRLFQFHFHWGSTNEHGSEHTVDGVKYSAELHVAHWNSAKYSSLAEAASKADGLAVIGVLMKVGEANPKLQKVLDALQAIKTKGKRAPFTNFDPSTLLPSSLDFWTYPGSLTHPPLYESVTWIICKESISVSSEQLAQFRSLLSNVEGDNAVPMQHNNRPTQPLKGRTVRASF
- ASSAY: esterase inhibition assay
- Type: biochemical
- SETTINGS: substrate 4-nitrophenyl acetate
PROPERTY: Ki (nM)

# MOL SMILES, VALUE REPORTED
rows = [
    ("NS(=O)(=O)c1cccc(N=NNc2ccc(F)cc2)c1", 21),
]

----------
- TARGET: hCA I (Homo sapiens, UniProt P00915)
- Construct: gene CA1; native enzyme purified from human blood; cytosolic isoform
- ASSAY: esterase inhibition assay
- Format: biochemical
Class key for Ki values: lo = under 40 nM, mid = from 40 nM up to 50 nM, hi = 50 nM and over

# MOL SMILES, CLASSIFICATION
records = [
    ("NS(=O)(=O)c1cccc(N=NNc2ccccc2Br)c1", "hi"),
    ("COc1cccc(NN=Nc2cccc(S(N)(=O)=O)c2)c1", "lo"),
    ("NS(=O)(=O)c1cccc(N=NNc2ccccc2F)c1", "hi"),
    ("NS(=O)(=O)c1cccc(N=NNc2ccccc2)c1", "lo"),
    ("NS(=O)(=O)c1cccc(N=NNc2cccc(F)c2)c1", "lo"),
    ("COc1ccc(/N=N/Nc2cccc(S(N)(=O)=O)c2)cc1", "mid"),
    ("NS(=O)(=O)c1cccc(N=NNc2ccc(Br)cc2)c1", "hi"),
    ("NS(=O)(=O)c1cccc(N=NNc2ccccc2Cl)c1", "mid"),
    ("CCOc1ccc(NN=Nc2cccc(S(N)(=O)=O)c2)cc1", "lo"),
    ("NS(=O)(=O)c1cccc(N=NNc2cccc(Cl)c2)c1", "hi"),
]
